# assayTarget: T1, Claudin 18.2 (CLDN18.2), expressed on CHOS-CLDN 18.2 / HEK293-CLDN 18.2 / HCC827-CLDN 18.2 cells (human, UniProt P56856-2 1-261)
# T1 construct: whole, on cells; The species is not repeated for the CHOS-CLDN 18.2 cells; also called claudin-18A2
# testDescription: FACS, CHOS-CLDN18.2 cells, 0.313 µg/ml
measuredAttribute: FACS reading

binder	measurement
QP192193 (antibody, human IgG1, V domains shown, Chimeric; also called 40F1; mouse-derived chimeric antibody QP192193) VH: QVQLQQSGAELVRPGSSVKISCKASGYAFSSYWMNWVKQRPGQGLEWIGQIYPGNGDTTYNGKFKGQATLTADKSSSTVYMQLSSLTSEDSAVYFCARFVKGNAMDYWGQGTSVTVSS VL: DIVMTQSPSSLTVTAGEKVTMSCKSSQSLLNSGNQKNYLTWYQQNPGQPPKMLIYWASTRESGVPDRFTGSGSGIDFSLTISSVQAEDLALYYCQNAYSYPFTFGSGTKLEIK	74600
QP024025 (antibody, human IgG1, V domains shown, also called IMAB362; 175D10(IMAB362)) VH: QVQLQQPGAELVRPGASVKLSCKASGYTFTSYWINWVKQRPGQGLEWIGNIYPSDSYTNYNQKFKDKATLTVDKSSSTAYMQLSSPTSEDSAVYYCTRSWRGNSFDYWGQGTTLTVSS VL: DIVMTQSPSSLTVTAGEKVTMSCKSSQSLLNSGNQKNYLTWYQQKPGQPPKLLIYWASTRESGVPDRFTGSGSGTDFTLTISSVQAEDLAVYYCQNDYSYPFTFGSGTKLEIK	51000
QP14451442 (antibody, human IgG1, kappa, V domains shown, Humanized from QP192193) VH: QVQLVQSGAEVKKPGASVKVSCKASGYAFSSYWMNWVRQAPGQGLEWIGQIYPGNGDTTYNGKFKGRVTMTADKSTSTVYMELSSLRSEDTAVYFCARFVKGNAMDYWGQGTLVTVSS VL: DIVMTQSPDSLAVSLGERATISCKSSQSLLNSGNQKNYLTWYQQKPGQPPKMLIYWASTRESGVPDRFSGSGSGIDFTLTISSVQAEDVAVYYCQNAYSYPFTFGQGTKLEIKR	82300
QP14451440 (antibody, human IgG1, kappa, V domains shown, Humanized from QP192193; also called QP14401445) VH: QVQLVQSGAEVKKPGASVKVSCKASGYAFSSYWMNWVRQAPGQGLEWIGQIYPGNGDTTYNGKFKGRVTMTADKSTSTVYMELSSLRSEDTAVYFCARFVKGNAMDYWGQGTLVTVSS VL: DIVMTQSPDSLAVSLGERATISCKSSQSLLNSGNQKNYLTWYQQKPGQPPKLLIYWASTRESGVPDRFSGSGSGTDFTLTISSLQAEDVAVYYCQNAYSYPFTFGQGTKLEIKR	104000
QP14441441 (antibody, human IgG1, kappa, V domains shown, Humanized from QP192193) VH: QVQLVQSGAEVKKPGASVKVSCKASGYAFSSYWMNWVRQAPGQGLEWIGQIYPGNGDTTYNGKFKGRVTMTADKSTSTVYMELSSLRSEDTAVYYCARFVKGNAMDYWGQGTLVTVSS VL: DIVMTQSPDSLAVSLGERATISCKSSQSLLNSGNQKNYLTWYQQKPGQPPKLLIYWASTRESGVPDRFSGSGSGIDFTLTISSVQAEDVAVYYCQNAYSYPFTFGQGTKLEIKR	74700
